B1: CLINT1 (parent)
chain: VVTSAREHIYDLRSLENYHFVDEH

- Variants of: B1
- procedure_details: protein stability index of a GFP-peptide fusion (GPS, HEK-293T) (PSI 1-6); higher = more stable;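 also: lentivirally expressed fusions sorted by FACS into six bins by GFP to DsRed ratio, PSI derived from sequencing read proportions per bin multiplied by bin number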
- details: c terminus: a fixed tail appended
Reported protein stability index values follow for various variants
assay_endpoint: protein stability index

- sequence_entry: "VVTSAREHIYDLFSLENYHFVDEH [R13F]"
  observed_value: 1.73
- sequence_entry: "VVTSAREHIYDLRVLENYHFVDEH [S14V]"
  observed_value: 2.11
- sequence_entry: "VVTSARTHIYDLRSLENYHFVDEH [E7T]"
  observed_value: 2.73
- sequence_entry: "VVTSANEHIYDLRSLENYHFVDEH [R6N]"
  observed_value: 3.14
